Catalogue of AC50 values
- System: INS-1E rat beta cells, no cytokines, CellTiter-Glo ATP, 48 h
- Assay Name: cytokine-free beta-cell viability effect – INS-1E rat cells, ATP luminescence, cherry pick, counter-screen for beta-cell apoptosis protection project, dose response (AID 463229)
Reported Metric: AC50

> print(dat)
                                    compound                          target.or.system  reported.measurement
 1  COc1ccc(CNCCc2c(C)[nH]c3ccc(OC(F)(F)F)cc23)c(OC)c1  INS-1E rat beta cells, no cytokines, CellTiter-Glo ATP, 48 h                6.6 µM
 2       Cc1cccc(/C=N\NC(=O)c2ccc(Cl)cc2)c1O  INS-1E rat beta cells, no cytokines, CellTiter-Glo ATP, 48 h                4.8 µM
 3  CCOc1cc(/C=C2\COc3ccccc3C2=O)cc(Br)c1OCC(=O)N(C)C  INS-1E rat beta cells, no cytokines, CellTiter-Glo ATP, 48 h               11.1 µM
 4  COc1cccc(C(=O)Oc2c(Br)cc(Br)cc2/C=N/NC(=O)c2cc(C)[nH]n2)c1  INS-1E rat beta cells, no cytokines, CellTiter-Glo ATP, 48 h               7.17 µM
 5  NCCCn1c(C(=O)c2cc(Cl)c(N)c(Cl)c2)c2ccc([N+](=O)[O-])cc2[n+]1[O-]  INS-1E rat beta cells, no cytokines, CellTiter-Glo ATP, 48 h               5.34 µM
 6  COc1ccc(S(=O)(=O)N(C(=O)c2ccco2)c2cc3sc(=O)oc3c3ccccc23)cc1  INS-1E rat beta cells, no cytokines, CellTiter-Glo ATP, 48 h               14.5 µM
 7  COc1ccc(C2CC(c3ccc4ccccc4c3OC(C)=O)=NN2C(C)=O)cc1 (stereo not given)  INS-1E rat beta cells, no cytokines, CellTiter-Glo ATP, 48 h               8.47 µM
 8  Cc1sc2ncnc(N3CCN(S(=O)(=O)c4ccccc4)CC3)c2c1C  INS-1E rat beta cells, no cytokines, CellTiter-Glo ATP, 48 h               5.98 µM
 9             O=C1C=C(N2CCCCC2)c2ccccc2C1=O  INS-1E rat beta cells, no cytokines, CellTiter-Glo ATP, 48 h               10.6 µM
10                 Oc1ccc2ccccc2c1N=Nc1nccs1  INS-1E rat beta cells, no cytokines, CellTiter-Glo ATP, 48 h               6.54 µM
